- Tested on: K562 CRISPRi cells
- runDescription: Constant region variant library pooled growth screen, K562
- Type: cell-based, human
- conditionSet: sgRNA constant region variants; relative to the original, un-modified constant region cr995 (= 1)
Please respond with reported Mean relative activity for every item in the list.
Numbers only.

molecule | Mean relative activity
cr412 (nucleic acid, listed as DNA, chemistry not fully specified) guide: GTTTAAGAGCTAAGCTGGAAACAGCATAGCAAGTTTAAATAAGGCTAGTCCGTTATCAAGTTGAAAAACTGGCACCGAGTCGGTGCT | 1.025
cr947 (nucleic acid, listed as DNA, chemistry not fully specified) guide: GTTTAAGAGCTAAGCTGGGAACAGCATAGCAAGTTTAAATAAGGCTAGTCCGTTATCAACTTGAAAAAGTGGCACCGAGTCGGTGCT | 0.9997
cr656 (nucleic acid, listed as DNA, chemistry not fully specified) guide: GTTTAAGAGCTAAGCTGGAAACAGCATAGCAAGTTTAAATAAGGCTAGTCCGTTATCAACTTGAAAAAGTGGCCCCGAGTCGGGGCT | 1.004

Each of the following entries comes with a recorded value; kindly state Mean relative activity for each.
1. cr858 (nucleic acid, listed as DNA, chemistry not fully specified) guide: GTTTAAGAGCTAAGCTGGAGACAGCATAGCAAGTTTAAATAAGGCTAGTCCGTTATCAACTTGAAAAAGTGGCACCGAGTCGGTGCT
2. cr269 (nucleic acid, listed as DNA, chemistry not fully specified) guide: GTTTAAGAGCTAAGCTGGAAACAGCATAGCAAGTTTAAATAAGGCTAGTCCGTTATCAACTTGAAAAAGTGCAACCGAGTCGGTTGT
3. cr377 (nucleic acid, listed as DNA, chemistry not fully specified) guide: GTTTAAGAGCTAAGCTGGAAACAGCATAGCAAGTTTAAATAAGGCTAGTCCGTTAGCAACTTGAAAAAGTGGCACCGAGTCGGTGCT

Result:
[1.025, 0.9979, 1.012]
